Target or system UniProtKB Q16769; recorded quantity IC50.
Sequence (Q16769 29-361): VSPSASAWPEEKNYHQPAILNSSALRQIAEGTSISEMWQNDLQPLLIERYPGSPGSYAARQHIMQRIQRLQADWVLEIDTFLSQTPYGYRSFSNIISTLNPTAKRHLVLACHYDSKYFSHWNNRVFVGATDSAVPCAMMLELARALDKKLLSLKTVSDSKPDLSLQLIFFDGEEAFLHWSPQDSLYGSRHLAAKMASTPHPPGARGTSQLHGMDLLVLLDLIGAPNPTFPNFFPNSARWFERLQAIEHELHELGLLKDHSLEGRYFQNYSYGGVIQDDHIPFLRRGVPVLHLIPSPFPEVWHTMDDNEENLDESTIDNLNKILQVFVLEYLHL

Known results for compounds:
What measured IC50 is associated with Cn1cnnc1C1CCN(c2c(C#N)cccc2-c2cnccc2OCCO)CC1 on UniProtKB Q16769?
< 100 nM

What measured IC50 is associated with Cc1cc(-c2cccc(C#N)c2N2CCC(c3nncn3C)CC2)cnn1 on UniProtKB Q16769?
< 100 nM

What measured IC50 is associated with Cn1cnnc1C1CCN(c2c(-c3ccc(F)nc3)ccc(OC3CC3)c2C#N)CC1 on UniProtKB Q16769?
< 100 nM

---
What measured IC50 is associated with Cn1cnnc1C1CCN(c2c(C#N)cc(F)cc2-c2ccc(F)nc2)CC1 on UniProtKB Q16769?
1000 to 10000 nM

What measured IC50 is associated with N#Cc1cccc(-c2ccc(F)nc2)c1N1CCC(c2nncs2)CC1 on UniProtKB Q16769?
100 to 1000 nM

What measured IC50 is associated with Cn1cnnc1C1CCN(c2c(C#N)c(C3CC3)cc(F)c2-c2ccc(F)nc2)CC1 on UniProtKB Q16769?
< 100 nM

What measured IC50 is associated with Cn1cnnc1C1CCN(c2c(C#N)cccc2-c2cncc(OS(=O)(=O)F)c2)CC1 on UniProtKB Q16769?
< 100 nM

What measured IC50 is associated with CN(C)C(=O)c1ccc(-c2ccc(F)nc2)c(N2CCC(c3nncn3C)CC2)c1C#N on UniProtKB Q16769?
< 100 nM

What measured IC50 is associated with Cn1cc(-c2cnc(-c3ccc(F)nc3)c(N3CCC(c4nncn4C)CC3)c2C#N)cn1 on UniProtKB Q16769?
100 to 1000 nM

====

# assay.system: QPCTL (Homo sapiens (Human), UniProt Q9NXS2)
# protocol.details: QPCTL Enzymatic Activity Assay (coupled-enzyme fluorescent assay, H-Gln-AMC substrate)
# Format: biochemical
# condition.description: recombinant truncated human QPCTL 10-12 nM, 10 μM H-Gln-AMC; read-out: QPCTL Inhibition IC50
# Sequence (Q9NXS2 53-382): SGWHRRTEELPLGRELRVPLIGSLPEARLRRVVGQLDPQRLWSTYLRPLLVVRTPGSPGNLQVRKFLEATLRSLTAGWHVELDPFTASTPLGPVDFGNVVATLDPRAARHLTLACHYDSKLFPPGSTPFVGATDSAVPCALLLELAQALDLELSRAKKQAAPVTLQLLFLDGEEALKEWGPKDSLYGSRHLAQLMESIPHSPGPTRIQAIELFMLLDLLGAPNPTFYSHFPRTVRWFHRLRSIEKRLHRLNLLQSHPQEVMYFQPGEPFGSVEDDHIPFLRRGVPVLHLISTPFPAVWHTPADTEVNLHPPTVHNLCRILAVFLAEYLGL
value.type: IC50

Known results for compounds:
What measured IC50 is associated with Cn1cnnc1C1CCN(c2c(-c3ccc(F)nc3)ccc(-c3cnn(C4CCNCC4)c3)c2C#N)CC1 on QPCTL (Homo sapiens (Human), UniProt Q9NXS2)?
< 100 nM

What measured IC50 is associated with Cn1cnnc1C1CCN(c2c(C#N)c(C3CC3)cc(F)c2-c2ccc(F)nc2)CC1 on QPCTL (Homo sapiens (Human), UniProt Q9NXS2)?
100 to 1000 nM

What measured IC50 is associated with Cn1cnnc1C1CCN(c2c(C#N)cccc2-c2ccc(F)c(F)c2)CC1 on QPCTL (Homo sapiens (Human), UniProt Q9NXS2)?
100 to 1000 nM

What measured IC50 is associated with Cn1cnnc1C1CCN(c2c(C#N)ccnc2-c2ccc(F)nc2)CC1 on QPCTL (Homo sapiens (Human), UniProt Q9NXS2)?
< 100 nM

Turning now to a further record.
What measured IC50 is associated with CN(C)CCOc1ccc(-c2ccc(F)nc2)c(N2CCC(c3nncn3C)CC2)c1C#N on QPCTL (Homo sapiens (Human), UniProt Q9NXS2)?
< 100 nM

====

# assay.system: QPCTL (Homo sapiens (Human), UniProt Q9NXS2)
# protocol.details: Inhibition of Cellular QPCTL Activity - Imaging Assay, CC2C6 anti-CD47 staining of DLD-1 cells
# Type: cell-based
# condition.description: 72 hours, CC2C6 anti-CD47 high-content imaging
# Sequence (Q9NXS2 whole entry): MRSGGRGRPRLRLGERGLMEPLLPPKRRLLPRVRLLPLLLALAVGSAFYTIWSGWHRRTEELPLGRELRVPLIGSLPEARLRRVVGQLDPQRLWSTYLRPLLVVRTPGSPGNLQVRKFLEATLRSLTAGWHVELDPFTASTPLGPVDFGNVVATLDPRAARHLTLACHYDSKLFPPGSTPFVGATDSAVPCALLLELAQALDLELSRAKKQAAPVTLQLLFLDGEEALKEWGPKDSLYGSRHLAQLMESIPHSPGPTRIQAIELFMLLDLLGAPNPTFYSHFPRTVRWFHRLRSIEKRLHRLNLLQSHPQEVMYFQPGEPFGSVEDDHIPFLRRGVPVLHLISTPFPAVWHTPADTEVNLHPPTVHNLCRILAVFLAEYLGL
value.type: IC50

What measured IC50 is associated with Cn1ccc(-c2ccc(-c3ccc(F)nc3)c(N3CCC(c4nncn4C)CC3)c2C#N)n1 on QPCTL (Homo sapiens (Human), UniProt Q9NXS2)?
< 100 nM

What measured IC50 is associated with Cn1cnnc1C1CCN(c2c(-c3ccc(F)nc3)ccc(N3CC(O)C3)c2C#N)CC1 on QPCTL (Homo sapiens (Human), UniProt Q9NXS2)?
< 100 nM

What measured IC50 is associated with Cn1cnnc1C1CCN(c2c(-c3ccc(F)nc3)ccc(-c3ccn(C4CC4)n3)c2C#N)CC1 on QPCTL (Homo sapiens (Human), UniProt Q9NXS2)?
< 100 nM

What measured IC50 is associated with Cn1cnnc1C1CCN(c2c(-c3ccc(F)nc3)ccc(N3CCNCC3)c2C#N)CC1 on QPCTL (Homo sapiens (Human), UniProt Q9NXS2)?
1000 to 10000 nM

What measured IC50 is associated with Cn1cnnc1C1CCN(c2c(C#N)cc(Cl)cc2-c2ccc(F)nc2)CC1 on QPCTL (Homo sapiens (Human), UniProt Q9NXS2)?
< 100 nM

---
What measured IC50 is associated with Cn1cnnc1C1CCN(c2c(-c3ccc(F)nc3)ccc(F)c2C#N)CC1 on QPCTL (Homo sapiens (Human), UniProt Q9NXS2)?
< 100 nM

What measured IC50 is associated with Cn1cnnc1C1CCN(c2c(C#N)cccc2-c2ccc(F)cc2)CC1 on QPCTL (Homo sapiens (Human), UniProt Q9NXS2)?
1000 to 10000 nM

What measured IC50 is associated with CN1CCN(c2ccc(-c3ccc(F)nc3)c(N3CCC(c4nncn4C)CC3)c2C#N)CC1 on QPCTL (Homo sapiens (Human), UniProt Q9NXS2)?
< 100 nM

What measured IC50 is associated with CN(C)CCn1cc(-c2ccc(-c3ccc(F)nc3)c(N3CCC(c4nncn4C)CC3)c2C#N)cn1 on QPCTL (Homo sapiens (Human), UniProt Q9NXS2)?
< 100 nM

What measured IC50 is associated with CN1CCC(Oc2ccc(-c3ccc(F)nc3)c(N3CCC(c4nncn4C)CC3)c2C#N)C1 (single isomer, unassigned) [Example 90] on QPCTL (Homo sapiens (Human), UniProt Q9NXS2)?
< 100 nM

====

# assay.system: QPCTL (Homo sapiens (Human))
# protocol.details: Inhibition of Cellular QPCTL Activity - FACS flow cytometry, CC2C6 anti-CD47 staining of Ramos cells
# Type: cell-based
# condition.description: Ramos human Burkitts Lymphoma cells, 72-96 hours, % CC2C6-positive cells
pIC50: −log10 of the molar value.
Quick reference: pIC50 of the listed items.

Known results for compounds:
What measured pIC50 is associated with Cn1cnnc1C1CCN(c2c(-c3ccc(F)nc3)ccc(Cl)c2C#N)CC1 [Example 30] on QPCTL (Homo sapiens (Human))?
> 7.00

What measured pIC50 is associated with COc1ccncc1-c1ccc(Cl)c(C#N)c1N1CCC(c2nncn2C)CC1 [Example 27] on QPCTL (Homo sapiens (Human))?
6.00 to 7.00

What measured pIC50 is associated with Cn1cc(-c2ccc(-c3ccc(F)nc3)c(N3CCC(c4nncn4C)CC3)c2C#N)cn1 [Example 35] on QPCTL (Homo sapiens (Human))?
> 7.00

What measured pIC50 is associated with Cn1cnnc1C1CCN(c2c(C#N)cccc2-c2ccc(OCCO)nc2)CC1 [Example 6] on QPCTL (Homo sapiens (Human))?
5.00 to 6.00

What measured pIC50 is associated with COc1ccc(-c2ccnnc2)c(N2CCC(c3nncn3C)CC2)c1C#N [Example 26] on QPCTL (Homo sapiens (Human))?
> 7.00

Turning now to a further record.
What measured pIC50 is associated with CN(C)CCOc1ccncc1-c1cccc(C#N)c1N1CCC(c2nncn2C)CC1 [Example 8] on QPCTL (Homo sapiens (Human))?
5.00 to 6.00

====

# assay.system: QPCTL (Homo sapiens (Human))
# protocol.details: QPCTL Enzymatic Activity Assay (coupled-enzyme fluorescent assay, H-Gln-AMC substrate)
# Format: biochemical
# condition.description: recombinant truncated human QPCTL 10-12 nM, 10 μM H-Gln-AMC; read-out: QPCTL Inhibition IC50
pIC50: −log10 of the molar value.
Quick reference: pIC50 of the listed items.

Known results for compounds:
Dear colleague, I am looking for the recorded pIC50 of the following compound: CN1CCC(Oc2ccc(-c3ccc(F)nc3)c(N3CCC(c4nncn4C)CC3)c2C#N)C1 (single isomer, unassigned) [Example 91]
> 7.00

Dear colleague, I am looking for the recorded pIC50 of the following compound: CN(C)CCn1cc(-c2ccc(-c3ccc(F)nc3)c(N3CCC(c4nncn4C)CC3)c2C#N)cn1 [Example 60]
> 7.00

Dear colleague, I am looking for the recorded pIC50 of the following compound: Cn1cnnc1C1CCN(c2c(C#N)cccc2-c2cnccc2OCCO)CC1 [Example 9]
> 7.00

---
Dear colleague, I am looking for the recorded pIC50 of the following compound: N#Cc1cccc(-c2ccc(F)nc2)c1N1CCC(c2nncs2)CC1 [Example 72]
6.00 to 7.00

Dear colleague, I am looking for the recorded pIC50 of the following compound: Cc1cc(-c2ccc(-c3cnn(C)c3)c(C#N)c2N2CCC(c3nncn3C)CC2)cnn1 [Example 48]
> 7.00

Dear colleague, I am looking for the recorded pIC50 of the following compound: COc1ccncc1-c1cccc(C#N)c1N1CCC(n2ccnc2)CC1 [Example 13]
5.00 to 6.00

Dear colleague, I am looking for the recorded pIC50 of the following compound: Cn1ccc(-c2ccc(-c3ccc(F)nc3)c(N3CCN(c4nncn4C)CC3)c2C#N)n1 [Example 122]
> 7.00

Ref: patent US20240101544A1
